Hey, just so you know, these numbers are from PubChem BioAssay.

# protocol_summary: PSAC antagonists in infected red cells, primary screen, cell-based, P. falciparum Indochina, OD700, 18 h (AID 1157)
# particulars: P. falciparum Indochina infected erythrocytes, osmotic lysis OD700, 18 h; higher = more signal, called active from +8 up or from −8 down
// No strictly below 0.08 in z-score; Yes otherwise

Here's what some known entries look like.
COc1ccc(-c2ccc3c(n2)CCCN3CC(O)CN2CCCc3nc(C)c(C)cc32)cc1 (configuration not stated) :: No
c1ccc(C2NCCc3c2[nH]c2ccccc32)cc1 (configuration not stated) :: No
COCCOC(=O)N1C(=O)[C@@]2(c3cc(C#Cc4ccc(OC)cc4)ccc31)[C@H](C(=O)N1CCN(c3ncccn3)CC1)[C@H]1C(=O)O[C@H](c3ccccc3)[C@H](c3ccccc3)N1[C@@H]2c1ccc(OCCO)cc1 :: Yes
COc1ccc([Si](C)(C)[C@@H]2[C@@H](CCO)O[C@]3(C(=O)N(Cc4ccc(NC(C)=O)cc4)c4ccccc43)[C@H]2C)cc1 :: No
COC(=O)CC=C[C@@H](C)[C@H](OC)c1ccccc1Br :: Yes

Prompt: Please check the record CC(CCN1CCc2nc(-c3ccccc3)c(-c3ccccc3)cc2C1)=NOC[C@@H](C)[C@H](OCc1ccccc1)C(C)C and state if its z-score is at or above 0.08.
Completion: Yes

Prompt: Please check the record COC(=O)[C@H](C)NC(=O)CCC1CC(OC(=O)NCCc2ccc(F)cc2)CC2(CCCC(COC(=O)NCC(c3ccccc3)c3ccccc3)O2)O1 (some centres not stated) and state if its z-score is at or above 0.08.
Completion: Yes
